# Tested on: MDA-N
# test_summary: NCI tumour cell line growth inhibition, 48 h
endpoint_name: TGI (µM)
Give bare numbers, in µM.

# record_smiles, assayed_target, TGI [µM]
measured = [
    ("CN(C)CCNC(=O)C(C)(C)Oc1ccc(C(=O)c2ccc(Cl)cc2)cc1Cl", "MDA-N", 19.8),
]

Challenge: I would be grateful if you could share the reported TGI for COc1cc(OC)c(/C=C\c2ccnc3ccccc23)c(OC)c1 .
Response given: 2.03

###

# Tested on: HOP-62 NSCLC
# test_summary: NCI tumour cell line growth inhibition, 48 h
endpoint_name: TGI

Solved entries (count: 4):
# molecule, assayed_target, TGI
rows = [
    ("Cc1ccc(-c2cc(C(F)(F)F)nn2-c2ccc(S(N)(=O)=O)cc2)cc1", "HOP-62 NSCLC", "> 100 µM"),
    ("CN(C)c1ccc(N=C2C=CC(=[N+](C)C)C=C2)cc1", "HOP-62 NSCLC", "> 100 µM"),
    ("NNC(=O)CNC(=O)c1ccc(Cl)cc1Cl", "HOP-62 NSCLC", "> 100 µM"),
    ("CN(C)CCNC(=O)C(C)(C)Oc1ccc(C(=O)c2ccc(Cl)cc2)cc1Cl", "HOP-62 NSCLC", "23.9 µM"),
]

Dear colleague, could you send me TGI for each of the items below? Thanks.
1. CN(C)CCN=C1Nc2ccccc2C(=S)N2CSCC12 (centres undefined)
2. COC(=O)[C@]12CC[C@@H](C)[C@H](C)[C@@H]1C1=CC[C@@H]3[C@@]4(C)C(C=O)=C[C@@](C)(COC(C)=O)C4=CC[C@@]3(C)[C@]1(C)CC2
3. Nc1nc(OCc2cc(Br)cs2)c2[nH]cnc2n1
4. [O-][n+]1ccccc1S
5. CC(SC(=S)N1CCOCC1)C(=O)Nc1nnc(-c2ccccc2)o1 (centres undefined)
6. CCC(=O)c1ccc2[nH]c3c(C)c4c(=O)cc(C)[nH]c4c(C)c3c2c1
7. C=C[C@@H]1C[C@]2(C(=O)OC)Cc3nc4ccccc4nc3CC(C(=O)OC)=C2O1

Response given:
1. > 100 µM
2. 29.3 µM
3. > 100 µM
4. 13.1 µM
5. > 100 µM
6. > 100 µM
7. > 100 µM

Each molecule below has a reported value. Please supply its TGI.
1. CC(=O)OC1CCCn2c1nc1c2C(=O)C(C)=C(N2CC2)C1=O (centres undefined)
2. CCN1C(=O)N(CC)C2Nn3c(s/c(=C\c4ccccc4Br)c3=O)=NC21 (centres undefined)

Response given:
1: 0.625 µM; 2: > 100 µM

Challenge: Data request, read-out TGI, for CC1=NOC(=O)/C1=C/c1cccc2ccccc12
Response given: > 100 µM

###

Provide the reported TGI of each item.
# System: CAKI-1 renal
# test_summary: NCI tumour cell line growth inhibition, 48 h

Below: 5 compounds and their reported TGI.
# compound, measured
data = [
    ("CCc1c(Cc2[nH]c(Cc3[nH]c(C=O)c(C)c3CC)c(CC)c2CC)[nH]c(C=O)c1C", "> 100 µM"),
    ("NNC(=O)CNC(=O)c1ccc(Cl)cc1Cl", "> 100 µM"),
    ("Nc1ccn(C2CCC(CO)O2)c(=S)n1 (centres undefined)", "> 100 µM"),
    ("C[C@]12CC/C(=N\\O)C=C1CC[C@@H]1[C@@H]2CC[C@]2(C)C(=N/O)/C(=C/c3ccc([N+](=O)[O-])cc3)C[C@@H]12", "6.41 µM"),
    ("COc1ccc(C(CC(=O)C(C)(C)CN2CCCCC2)SCCS(=O)(=O)O)cc1 (centres undefined)", "> 100 µM"),
]

Would you be so kind as to report TGI for each listed record?
1. O=C(/C(=C\c1ccc([N+](=O)[O-])cc1)S(=O)Cc1ccc(F)cc1)c1ccc(F)cc1 (centres undefined)
2. COC(=O)C(C(=O)C(=O)Nc1nc(=S)[nH][nH]1)c1csc(-n2nc(-c3ccccc3)cc2-c2ccccc2)n1 (centres undefined)
3. COc1ccc2c(c1)[n+](=O)c(C(=O)c1ccco1)c(C(F)(F)F)n2[O-]
4. O=c1[nH]nc(Cc2ccccc2)n1/N=C\c1ccccc1

Response given:
1. 5.54 µM
2. > 100 µM
3. 4.54 µM
4. > 100 µM

# batch: return TGI for each of the 5 compounds below
1. CC(/C(=N\Nc1ccccc1)c1ccc(O)cc1)C1C(=O)Oc2ccccc21 (centres undefined)
2. Cc1ccc(NC(=O)C(=O)C(C#N)c2nc(-c3ccc(-c4ccccc4)cc3)cs2)c(C)c1 (centres undefined)
3. CN(N)c1cc(=O)[nH]c(=O)[nH]1
4. Cc1cccc2c1N(C(=O)/C=C\C(=O)O)C(c1c(C)[nH]c3ccccc13)C2 (centres undefined)
5. Oc1ccc(N=C2CCC(=C(c3ccccc3)c3ccc(Nc4ccc(O)cc4)cc3)CC2)cc1

Response given:
["> 100 µM", "> 100 µM", "> 100 µM", "> 100 µM", "> 100 µM"]

###

Exercise: state measured TGI for each of the compounds provided.
# Tested on: SNB-19 CNS
# test_summary: NCI tumour cell line growth inhibition, 48 h

Record excerpt, results attached:
# compound, TGI
data = [
    ("O=C1NC(=O)C2(CCCCCC2)N1", "> 100 µM"),
    ("CCN1C(=O)N(CC)C2Nn3c(s/c(=C\\c4ccccc4Br)c3=O)=NC21 (stereo unspecified)", "> 100 µM"),
    ("CC(=O)NC1=C(NCCN(C)C)C(=O)c2ccccc2C1=O", "> 50 µM"),
    ("COc1cc(C2C(C#N)=C(N)OC3=C2CCS(=O)(=O)c2ccc(C)cc23)cc(OC)c1OC (stereo unspecified)", "> 100 µM"),
    ("CC(=O)Nc1ccc(-c2nc3ccccc3s2)cc1I", "> 87.5 µM"),
]

Here is the next item to consider.
Challenge: What value of TGI has been reported for the following compound? Cc1ccc(N=Nc2ccc(O)c(CN(C)C)c2)cc1
Response given: > 100 µM

###

Would you kindly list TGI for each of these molecules?
# System: CAKI-1 renal
# test_summary: NCI tumour cell line growth inhibition, 48 h

Consider the worked cases shown below.
# molecule, assayed_target, measured
rows = [
    ("COC(=O)[C@@H]1CN(C(C)=O)C(=O)N1C(=O)OCc1ccccc1", "CAKI-1 renal", "> 100 µM"),
    ("Clc1cc(Cl)cc(C2ON=C(c3ccccc3)N2C23CC4CC(CC(C4)C2)C3)c1 (configuration not stated)", "CAKI-1 renal", "> 10 µM"),
    ("O=c1oc2ccccc2c(O)c1/C=N/C(=S)NCCc1ccccc1", "CAKI-1 renal", "> 100 µM"),
    ("O=C(N=Nc1cccc(Cl)c1)NNc1cccc(Cl)c1", "CAKI-1 renal", "91.1 µM"),
]

Look up TGI for the entries below, preserving their order.
1. CNCc1cc(OC)ccc1-c1ccc(OC)c(OC)c1OC
2. COc1cccc(/C=N/[N-]C(N)=O)c1[O-].[Ni+2].[OH3+].c1ccc(-c2ccccn2)nc1
3. COC(=O)c1c(O)ccc2c1c1c(n2Cc2ccc(Cl)cc2Cl)C(=O)c2ccccc2C1=O

Response given:
1: > 100 µM; 2: > 100 µM; 3: 27.2 µM

###

# System: SK-OV-3 ovarian
# test_summary: NCI tumour cell line growth inhibition, 48 h; in the data active = GI50 below about 0.43 µM; inactive = the rest
I would appreciate it if you answered using one of these outcomes: y = active, n = inactive

Look over these answered cases.
# compound, group_label
records = [
    ("COC1CCN(C(=O)c2cc(Cc3n[nH]c(=O)c4ccccc34)ccc2F)CC1", "n"),
    ("C[C@H](Nc1ncnc2nc[nH]c12)c1cc2ccc(F)cc2nc1-c1ccccn1", "n"),
    ("COc1ccc2cc(-c3cc4c(oc3=O)-c3ccccc3OC4O)c(=O)oc2c1 (stereo not drawn)", "n"),
    ("C/C(=C\\CCc1ccoc1)CC/C=C(\\C)CCCN1CCOCC1", "n"),
    ("Clc1ccc2c(c1)N(c1ncnc3ccc(-c4cnc5[nH]ccc5c4)cc13)CC2", "n"),
    ("O=C(c1ccccc1)c1ccc(Oc2ccc([N+](=O)[O-])cc2[N+](=O)[O-])cc1", "n"),
    ("c1cc2[nH]ncc2cc1-c1nc2ccc3[nH]ncc3c2c2c1CCCC2", "n"),
    ("COc1ccc2c(c1)[nH]c(=O)c1c3cc(OC)ccc3cn21", "y"),
]

Challenge: GET /call?item= O=C1NC(=O)C(=C/C=C/c2ccccc2)C(=O)N1 returns the recorded outcome of this test.
Response given: n

Challenge: Same again, this time with Oc1ccc(O)c(-c2cn3ccsc3n2)c1
Response given: n

###

# Tested on: SNB-19 CNS
# test_summary: NCI tumour cell line growth inhibition, 48 h
endpoint_name: TGI

Worked cases, answers included:
# record_smiles, TGI
measured = [
    ("O=C1c2ccccc2S(=O)(=O)N1CSC(=S)N1CCCCC1", "> 100 µM"),
    ("Cc1ccc(-c2cc3c(SCC(=O)Nc4cc(C(F)(F)F)ccc4Cl)nccn3n2)cc1", "> 100 µM"),
    ("COc1ccc2cc(C(=O)O)ccc2c1OC", "> 100 µM"),
]

Challenge: Which TGI reading was recorded for the molecule COc1ccc2c(c1)[n+](=O)c(C(=O)c1ccco1)c(C(F)(F)F)n2[O-] ?
Response given: 45.5 µM
